TARGET_ENTITY: PD-L1 (Homo sapiens)
Construct: determine if they can specifically dimerize the extracellular domains of PD-L1
Sequence (Q9NZQ7 19-238 limits assumed): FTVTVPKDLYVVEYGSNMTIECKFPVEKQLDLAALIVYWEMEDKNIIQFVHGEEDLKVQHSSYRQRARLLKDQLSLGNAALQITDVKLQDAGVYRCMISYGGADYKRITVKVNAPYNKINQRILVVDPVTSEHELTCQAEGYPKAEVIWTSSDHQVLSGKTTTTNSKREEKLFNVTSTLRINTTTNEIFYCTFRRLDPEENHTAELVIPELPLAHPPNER
Sequence (Q9NZQ7 19-238 limits assumed): as above
TEST_SUMMARY: PD-L1/PD-L1 dimerization biochemical protein-protein interaction assay (ALPHA)
Type: binding
RUN_PARAMETERS: compound-induced PD-L1 dimerization, head prints '1 nM' (0.5 nM His-tagged PD-L1 and 0.5 nM FLAG-tagged PD-L1), read-out: AC50 PDL1 Dimer Alpha 1 nM
MEASURED_METRIC: AC50 (µM)
Respond with the bare value in µM.

In the examples that follow, each entry is paired with its recorded AC50.
- COc1nc(-c2cccc(-c3cccc(COc4cc(OCc5cncc(C#N)c5)c(CN5CC[C@@H](O)C5)cc4Cl)c3C)c2C)ccc1CNC[C@@H](O)CC(=O)O [Example 307]: 0.599
- COc1cc(-c2cccc(-c3cccc(-c4ccc(CNCCO)c(OC)c4)c3C)c2C)ccc1CNCCO [Example 627]: 0.48
- Cc1c(-c2ccc(CN3CC[C@@H](O)C3)cc2)cccc1-c1cccc(-c2ccc(CNC[C@@H](O)CC(=O)O)c(OC(F)(F)F)c2)c1C [Example 325]: 0.633

(Q) Tell me its AC50 given COc1nc(O[C@H]2CCc3c(-c4cccc(-c5ccc(CNC[C@@H]6CCC(=O)N6)cc5)c4Cl)cccc32)c(Cl)cc1CN1CC[C@@H](C(=O)O)C1 [Example 722] as the entry.
(A) 0.016

(Q) Tell me its AC50 given Cc1c(COc2cc(OCc3cncc(C#N)c3)c(CN[C@@](C)(CO)C(=O)O)cc2Cl)cccc1-c1c(F)ccc(-c2ccc(CN(C)C)cc2)c1Cl [Example 301] as the entry.
(A) 0.0959

(Q) Tell me its AC50 given C[C@@](CO)(NCc1cc(Cl)c(O[C@H]2CCc3c(-c4cccc(-c5ccc6c(c5)C[C@H](N)C6)c4Cl)cccc32)nc1OCc1cncc(C#N)c1)C(=O)O [Example 695] as the entry.
(A) 0.0216

(Q) Tell me its AC50 given COc1nc(-c2cccc(-c3cccc(-c4ccc5[nH]cc(CN(C)C)c5c4)c3Cl)c2Cl)ccc1CNC[C@@H]1CCC(=O)N1 [Example 608] as the entry.
(A) 0.214

(Q) Tell me its AC50 given CC(=O)N1CC2(CN(Cc3cn(C)c4nc(-c5cccc(-c6cccc(-c7cnc8c(CN9CC%10(C9)CN(C(C)=O)C%10)cn(C)c8n7)c6Cl)c5Cl)cnc34)C2)C1 [Example 587] as the entry.
(A) 0.324

(Q) Tell me its AC50 given Cc1c(-c2ccc(OCCNC[C@@H](O)CC(=O)O)cc2)cccc1-c1cccc2c1CC[C@@H]2Oc1ccc(CNC[C@@H](O)CC(=O)O)c(OCc2cncc(C#N)c2)n1 [Example 677] as the entry.
(A) 0.18

(Q) Tell me its AC50 given COc1nc(-c2cccc(-c3cccc(-c4cnc5c(CNC[C@H]6CCC(=O)N6)cn(C)c5c4)c3Cl)c2Cl)ccc1CNC[C@H]1CCC(=O)N1 [Example 602] as the entry.
(A) 0.124

(Q) Tell me its AC50 given COc1nc(O[C@H]2CCc3c(-c4cccc(-c5ccc(CNC[C@@H]6CCC(=O)N6)cc5)c4Cl)cccc32)c(Cl)cc1CN1CC(C(=O)O)C1 [Example 721] as the entry.
(A) 0.019

(Q) Tell me its AC50 given COc1nc(-c2cccc(-c3cccc4c3CC[C@@H]4Oc3nc(OC)c(CNC[C@@H]4CCC(=O)N4)cc3Cl)c2Cl)ccc1CNC[C@@H]1CCC(=O)N1 [Example 734] as the entry.
(A) 0.046

(Q) Tell me its AC50 given Cc1c(COc2cc(OCc3cncc(C#N)c3)c(CNCCO)cc2Cl)cccc1-c1cccc(-c2ccc(CN(C)C)cc2)c1Br [Example 450] as the entry.
(A) 0.11

(Q) Tell me its AC50 given Cc1c(COc2cc(OCc3cncc(C#N)c3)c(CNC[C@@H](O)CC(=O)O)cc2Cl)cccc1-c1cccc(-c2nc3c(C)c(CNC[C@@H](O)CC(=O)O)ccc3s2)c1C [Example 395] as the entry.
(A) 0.0896

(Q) Tell me its AC50 given COc1nc(-c2cccc(-c3cccc(OCc4ccc(CNC[C@@H]5CCC(=O)N5)cc4)c3Cl)c2Cl)ccc1CNC[C@@H]1CCC(=O)N1 [Example 426] as the entry.
(A) 0.408
